Test system: Mus musculus
Experiment: In vivo ratio of median survival time of drug-treated to control, untreated tumor-bearing mice at a dose of 4 mg/kg for 5 days
Type: functional
As shown below, each of these compounds has a reported T/C value.
assay metric: T/C

1) CC(=O)[O-].CCn1c(=O)/c(=C2\Sc3ccccc3N2C)s/c1=C\c1scc(C)[n+]1CC	>173%
2) CCN1C=CC=C/C1=C\C=c1/s/c(=C\c2sc3ccc4ccccc4c3[n+]2CC)n(CC)c1=O.[Cl-]	122%
3) CC(=O)[O-].CCn1c(=O)/c(=C2\Sc3ccccc3N2C)s/c1=C\C1CCC[n+]2c1sc1ccccc12 (centres undefined)	>208%
4) CC(=O)[O-].CCn1c(=O)/c(=C2\SCCN2C)s/c1=C\c1sc2ccc3ccccc3c2[n+]1CC	106%

Value source: ChEMBL document CHEMBL1131199
